test system: WEHI 231 cells; test: TUNEL analysis, inhibitor alone (toxicity control); assay type: cell-based, murine; details: 20 μM Inh alone, no ActD
Peptide text beside a SMILES is read from it. * marks the point of attachment. Cbz = O=C(OCc1ccccc1)*; CH2F = FC*
quantity: % non-viable cells, inhibitor alone (%)
Just the number please, in %, no unit attached.

Q: Recorded % non-viable cells, inhibitor alone for COC(=O)CC(NC(=O)C(CC(C)C)NC(=O)c1ccc2ccccc2n1)C(=O)COc1ccccc1 (stereo not drawn) [Inhibitor J^1, Q-Leu-Asp(OMe)—CH2—OPh] , please?
Ans: 1

Q: Recorded % non-viable cells, inhibitor alone for COC(=O)CC(NC(=O)C(C)NC(=O)C(NC(=O)OCc1ccccc1)C(C)C)C(=O)CF (stereo not drawn) [Z-VAD-FMK, reference compound] (Cbz-Val-Ala-Asp(OMe)-CH2F; configuration not given here) , please?
Ans: 3

Q: Recorded % non-viable cells, inhibitor alone for COC(=O)CC(NC(=O)C(C)NC(=O)C(NC(=O)OCc1ccccc1)C(C)C)C(=O)COc1c(F)cccc1F (stereo not drawn) [Inhibitor G^1, 2-Val-Ala-Asp(OMe)—CH2—OPh] , please?
Ans: 1
